IC50 values by entry
Target: full length N-terminally FLAG-tagged PARP1 (Homo sapiens, UniProt P09874)
Sequence (P09874 whole entry): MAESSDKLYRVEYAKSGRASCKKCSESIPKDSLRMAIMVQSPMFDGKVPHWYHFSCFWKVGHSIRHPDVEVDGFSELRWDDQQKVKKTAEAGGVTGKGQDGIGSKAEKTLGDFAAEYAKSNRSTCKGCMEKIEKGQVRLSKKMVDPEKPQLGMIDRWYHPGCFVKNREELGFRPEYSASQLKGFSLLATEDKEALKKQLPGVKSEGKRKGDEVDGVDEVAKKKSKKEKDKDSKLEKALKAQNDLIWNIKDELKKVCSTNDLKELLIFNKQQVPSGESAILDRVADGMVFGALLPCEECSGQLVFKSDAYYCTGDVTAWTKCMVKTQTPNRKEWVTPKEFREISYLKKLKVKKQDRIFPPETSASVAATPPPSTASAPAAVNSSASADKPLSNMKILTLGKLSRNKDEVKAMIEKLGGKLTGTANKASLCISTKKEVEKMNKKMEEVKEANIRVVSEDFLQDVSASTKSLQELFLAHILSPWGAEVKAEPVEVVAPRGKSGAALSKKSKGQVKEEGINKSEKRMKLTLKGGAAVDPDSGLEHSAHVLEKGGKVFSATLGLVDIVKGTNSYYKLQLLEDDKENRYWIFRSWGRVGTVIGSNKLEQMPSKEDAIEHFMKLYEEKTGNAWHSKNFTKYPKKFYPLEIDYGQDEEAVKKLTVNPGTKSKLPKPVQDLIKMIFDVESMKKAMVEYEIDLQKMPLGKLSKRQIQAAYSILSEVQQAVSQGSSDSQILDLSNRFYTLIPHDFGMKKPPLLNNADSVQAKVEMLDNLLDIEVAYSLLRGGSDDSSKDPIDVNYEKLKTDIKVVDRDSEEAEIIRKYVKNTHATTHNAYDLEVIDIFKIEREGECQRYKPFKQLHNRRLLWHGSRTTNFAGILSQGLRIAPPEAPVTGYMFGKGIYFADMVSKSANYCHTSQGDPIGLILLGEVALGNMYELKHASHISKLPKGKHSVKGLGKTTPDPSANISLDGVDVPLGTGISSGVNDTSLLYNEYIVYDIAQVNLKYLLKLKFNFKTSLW
Assay: PARP1 biochemical DELFIA assay (auto-PARylation)
Set-up: recombinant full length human N-terminally FLAG-tagged PARP1
Settings: binned IC50, PARP1 biochemical DELFIA assay

>  <MOLECULE>
CCc1cnc(C2CCN(C3CCN(c4ccc(C(=O)NC)nc4)CC3)C2)[nH]c1=O (racemic) [Compound 42rac]

>  <STUDY TARGET>
full length N-terminally FLAG-tagged PARP1 (Homo sapiens, UniProt P09874)

>  <IC50>
< 10 nM

$$$$
>  <MOLECULE>
CCc1ccc(C2CCN(C3CCN(c4ccc(C(=O)NC)nc4C)CC3)C2)[nH]c1=O (single isomer, unassigned) [Compound 133a]

>  <STUDY TARGET>
full length N-terminally FLAG-tagged PARP1 (Homo sapiens, UniProt P09874)

>  <IC50>
< 10 nM

$$$$
>  <MOLECULE>
CNC(=O)c1ccc(OCCN2CCCC(c3nc4ccccc4c(=O)[nH]3)C2)cn1 (single isomer, unassigned) [Compound 65a]

>  <STUDY TARGET>
full length N-terminally FLAG-tagged PARP1 (Homo sapiens, UniProt P09874)

>  <IC50>
< 10 nM

$$$$
>  <MOLECULE>
CNC(=O)c1cc(C)c(N2CCC(N3CCC(c4cc5ccccc5c(=O)[nH]4)C3)CC2)c(C)n1 (single isomer, unassigned) [Compound 205b]

>  <STUDY TARGET>
full length N-terminally FLAG-tagged PARP1 (Homo sapiens, UniProt P09874)

>  <IC50>
10 to 100 nM

$$$$
>  <MOLECULE>
CNC(=O)c1ccc(N2CC(N3CCC(c4nc5ccccc5c(=O)[nH]4)CC3)C2)cn1 [Compound 28]

>  <STUDY TARGET>
full length N-terminally FLAG-tagged PARP1 (Homo sapiens, UniProt P09874)

>  <IC50>
100 to 1000 nM

$$$$
>  <MOLECULE>
CNC(=O)c1ccc(N2CCC(N3CCC(c4nc5cc(F)ccc5c(=O)[nH]4)C3)CC2)cn1 (single isomer, unassigned) [Compound 92b]

>  <STUDY TARGET>
full length N-terminally FLAG-tagged PARP1 (Homo sapiens, UniProt P09874)

>  <IC50>
10 to 100 nM

$$$$

----------
Target: full length N-terminally FLAG-tagged PARP1 (Homo sapiens)
Assay: PARP1 probe displacement HTRF assay
Settings: read-out: PARP1 HTRF; binned Kd, PARP1 probe displacement HTRF
Kd values by entry

>  <COMPOUND>
O=C(NCCF)c1ccc(N2CCC(N3CCC(c4nc5ccccc5c(=O)[nH]4)C3)CC2)cn1 (single isomer, unassigned) [Compound 117b]

>  <Kd>
< 10 nM

$$$$
>  <COMPOUND>
CNC(=O)c1ccc(N2CCC(N3CCCC(c4nc5c(F)cccc5c(=O)[nH]4)C3)CC2)cn1 (single isomer, unassigned) [Compound 114a]

>  <Kd>
< 10 nM

$$$$
>  <COMPOUND>
CNC(=O)c1ccc(N2CCC(N3CCC(c4cc5ccc(F)cc5c(=O)[nH]4)C3)CC2)c(F)n1 (single isomer, unassigned) [Compound 174a]

>  <Kd>
< 10 nM

$$$$

----------
Target: N-terminally FLAG-tagged PARP2 (amino acids 1-583) (Homo sapiens)
Construct: N-terminally FLAG-tagged PARP2 (amino acids 1-583)
Sequence (Q9UGN5 whole entry, the tested form may be a part): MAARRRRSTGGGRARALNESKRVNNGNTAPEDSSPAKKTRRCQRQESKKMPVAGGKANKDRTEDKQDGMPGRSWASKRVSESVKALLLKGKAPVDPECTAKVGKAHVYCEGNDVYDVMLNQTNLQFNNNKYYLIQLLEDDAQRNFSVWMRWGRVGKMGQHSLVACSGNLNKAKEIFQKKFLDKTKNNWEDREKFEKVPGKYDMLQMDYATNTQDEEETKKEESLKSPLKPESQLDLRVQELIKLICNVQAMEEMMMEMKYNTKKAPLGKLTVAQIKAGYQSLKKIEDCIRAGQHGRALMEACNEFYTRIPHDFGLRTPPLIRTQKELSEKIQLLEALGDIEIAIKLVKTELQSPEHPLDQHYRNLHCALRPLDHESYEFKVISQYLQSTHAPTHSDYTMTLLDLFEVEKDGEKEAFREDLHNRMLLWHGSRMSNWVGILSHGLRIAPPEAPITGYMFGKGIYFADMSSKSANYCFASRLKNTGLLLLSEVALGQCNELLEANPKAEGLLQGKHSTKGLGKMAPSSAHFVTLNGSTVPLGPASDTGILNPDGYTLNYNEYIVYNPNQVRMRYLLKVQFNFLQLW
Assay: PARP2 probe displacement HTRF assay
Format: binding
Conditions: binned Kd, PARP2 probe displacement HTRF
Kd values by entry

>  <MOLECULE>
CNC(=O)c1ccc(N2CCC(N3CCCC(c4ncc(C(F)(F)F)c(=O)[nH]4)C3)CC2)cn1 (single isomer, unassigned) [Compound 73b]

>  <Kd>
> 10000 nM

$$$$
>  <MOLECULE>
CNC(=O)c1ccc(N2CCC(N3CCCC(c4nc5ncccc5c(=O)[nH]4)C3)CC2)cn1 (single isomer, unassigned) [Compound 98b]

>  <Kd>
> 10000 nM

$$$$
>  <MOLECULE>
CNC(=O)c1cnc(N2CCC(N3CCC(c4nc5ccccc5c(=O)[nH]4)C3)CC2)cn1 (single isomer, unassigned) [Compound 96b]

>  <Kd>
100 to 1000 nM

$$$$
>  <MOLECULE>
CNC(=O)c1ccc(N2CCC(N3CCCC(c4nc5ccccc5c(=O)[nH]4)C3)CC2)cn1 (single isomer, unassigned) [Compound 6a]

>  <Kd>
> 10000 nM

$$$$
>  <MOLECULE>
CNC(=O)c1cc(C)c(N2CCC(N3CCC(c4cc5ccccc5c(=O)[nH]4)C3)CC2)cn1 (racemic) [Compound 195rac]

>  <Kd>
100 to 1000 nM

$$$$
>  <MOLECULE>
CNC(=O)c1ccc(N2CCC(N3CCC(c4nc5cc(Cl)ccc5c(=O)[nH]4)C3)CC2)cn1 (single isomer, unassigned) [Compound 87b]

>  <Kd>
1000 to 10000 nM

$$$$

----------
pKd values by entry
Target: N-terminally FLAG-tagged PARP2 (amino acids 1-583) (Homo sapiens)
Construct: N-terminally FLAG-tagged PARP2 (amino acids 1-583)
Assay: PARP2 probe displacement HTRF assay
Assay type: binding
Settings: binned Kd, probe displacement HTRF
pKd: −log10 of the molar value.

>  <COMPOUND>
CCc1ccc(C2CCN(C3CCN(c4cnc(C(=O)NC5CC5)c(F)c4)CC3)C2)[nH]c1=O (single isomer, unassigned) [Compound 408b]

>  <pKd>
5.00 to 6.00

$$$$
>  <COMPOUND>
CNC(=O)c1ccc(N2CCC(N3CCC(c4ccc(CC5CC5)c(=O)[nH]4)C3)CC2)c(F)n1 (single isomer, unassigned) [Compound 313b]

>  <pKd>
5.00 to 6.00

$$$$
>  <COMPOUND>
CCc1ccc(C2CC(=O)N(C3CCN(c4ccc(C(=O)NC)nc4)CC3)C2)[nH]c1=O (racemic)

>  <pKd>
< 5.00

$$$$
>  <COMPOUND>
CNC(=O)c1ccc(N2CCC(N3CCC(c4ccc(CCF)c(=O)[nH]4)C3)CC2)cn1 (racemic)

>  <pKd>
5.00 to 6.00

$$$$
>  <COMPOUND>
O=c1[nH]c(C2CCN(C3CCN(c4ccc(OC(F)F)nc4)CC3)C2)cc2ccc(F)cc12 (single isomer, unassigned) [Compound 374a]

>  <pKd>
6.00 to 7.00

$$$$
>  <COMPOUND>
CCc1cc(Cl)c(C2CCN(C3CCN(c4ccc(C(=O)NC)nc4)CC3)C2)[nH]c1=O (racemic)

>  <pKd>
6.00 to 7.00

$$$$
>  <COMPOUND>
CNC(=O)c1ccc(N2CCC(N3CCC(c4ccc(CCO)c(=O)[nH]4)C3)CC2)cn1 (racemic)

>  <pKd>
< 5.00

$$$$
>  <COMPOUND>
CCc1cc(C)c(C2CCN(C3CCN(c4ccc(C(=O)NC)nc4)CC3)C2)[nH]c1=O (single isomer, unassigned) [Compound 363b]

>  <pKd>
5.00 to 6.00

$$$$
>  <COMPOUND>
CNC(=O)c1ccc(N2CCC(N3CCC(c4cc5c(c(C(F)(F)F)nn5C)c(=O)[nH]4)C3)CC2)c(F)n1 (single isomer, unassigned) [Compound 407a]

>  <pKd>
6.00 to 7.00

$$$$
>  <COMPOUND>
CCCc1ccc(C2CCN(C3CCN(c4ccc(C(=O)NC)nc4F)CC3)C2)[nH]c1=O (single isomer, unassigned) [Compound 269b]

>  <pKd>
< 5.00

$$$$
>  <COMPOUND>
CNC(=O)c1ccc(N2CCC(N3CC(c4cc5cccc(F)c5c(=O)[nH]4)C(F)(F)C3)CC2)cn1 (racemic)

>  <pKd>
5.00 to 6.00

$$$$
>  <COMPOUND>
CNC(=O)c1ncc(N2CCC(N3CCC(c4cc5cccc(F)c5c(=O)[nH]4)C3)CC2)c(C)n1 (racemic)

>  <pKd>
6.00 to 7.00

$$$$
>  <COMPOUND>
CC(=O)NC(=O)c1ccc(N2CCC(N3CCC(c4cc5ccccc5c(=O)[nH]4)C3)CC2)cn1 (single isomer, unassigned) [Compound 333a]

>  <pKd>
6.00 to 7.00

$$$$

----------
Biological target: N-terminally FLAG-tagged PARP2 (amino acids 1-583) (Homo sapiens)
Construct: N-terminally FLAG-tagged PARP2 (amino acids 1-583)
Test: PARP2 probe displacement HTRF assay
Type: binding
Conditions: binned Kd, probe displacement HTRF
pKd: −log10 of the molar value.
OBSERVATION TYPE: pKd

>  <MOLECULE>
CNC(=O)c1ncc(N2CCC(N3CCC(c4cc5cccc(F)c5c(=O)[nH]4)C3)CC2)c(C(F)(F)F)n1 (single isomer, unassigned) [Compound 277b]

>  <OBSERVATION TYPE>
pKd

>  <TEST RESULT>
< 5.00

$$$$
>  <MOLECULE>
CCc1ccc(C2CCN(C3CCN(c4ccc(C(=O)NC)cc4)CC3)C2)[nH]c1=O (single isomer, unassigned) [Compound 355b]

>  <OBSERVATION TYPE>
pKd

>  <TEST RESULT>
6.00 to 7.00

$$$$
>  <MOLECULE>
N#Cc1ccc(N2CCC(N3CCC(c4cc5cccc(F)c5c(=O)[nH]4)C3)CC2)cn1 (single isomer, unassigned) [Compound 316a]

>  <OBSERVATION TYPE>
pKd

>  <TEST RESULT>
6.00 to 7.00

$$$$
>  <MOLECULE>
CS(=O)(=O)Nc1ccc(N2CCC(N3CCC(c4nc5ccccc5c(=O)[nH]4)C3)CC2)cn1 (single isomer, unassigned) [Compound 291b]

>  <OBSERVATION TYPE>
pKd

>  <TEST RESULT>
5.00 to 6.00

$$$$
>  <MOLECULE>
CNC(=O)c1ncc(N2CCC(N3CCC(c4cc5ccc(F)cc5c(=O)[nH]4)C3)CC2)c(C)n1 (single isomer, unassigned) [Compound 265a]

>  <OBSERVATION TYPE>
pKd

>  <TEST RESULT>
5.00 to 6.00

$$$$
>  <MOLECULE>
O=C(NC1CC1)c1ccc(N2CCC(N3CCC(c4cc5cccc(F)c5c(=O)[nH]4)C3)CC2)cn1 (single isomer, unassigned) [Compound 339a]

>  <OBSERVATION TYPE>
pKd

>  <TEST RESULT>
7.00 to 8.00

$$$$
>  <MOLECULE>
CCc1ccc(C2CCN(C3CCN(c4ccc(C(=O)NCC(F)(F)F)nc4F)CC3)C2)[nH]c1=O (single isomer, unassigned) [Compound 285b]

>  <OBSERVATION TYPE>
pKd

>  <TEST RESULT>
< 5.00

$$$$
>  <MOLECULE>
N#Cc1ccc(N2CCC(N3CCC(c4cc5ccc(F)cc5c(=O)[nH]4)C3)CC2)c(F)c1 (single isomer, unassigned) [Compound 385b]

>  <OBSERVATION TYPE>
pKd

>  <TEST RESULT>
7.00 to 8.00

$$$$
>  <MOLECULE>
N#Cc1nc(C(=O)NC2CC2)ccc1N1CCC(N2CCC(c3cc4ccc(F)cc4c(=O)[nH]3)C2)CC1 (single isomer, unassigned) [Compound 397a]

>  <OBSERVATION TYPE>
pKd

>  <TEST RESULT>
6.00 to 7.00

$$$$
>  <MOLECULE>
CNC(=O)c1ccc(N2CCC(N3CCC(c4[nH]c(=O)c5cc(F)ccc5c4F)C3)CC2)c(F)n1 (racemic)

>  <OBSERVATION TYPE>
pKd

>  <TEST RESULT>
7.00 to 8.00

$$$$
>  <MOLECULE>
CNC(=O)c1ccc(N2CCC(N3CCC(c4ccc(CC(F)F)c(=O)[nH]4)C3)CC2)cn1 (racemic)

>  <OBSERVATION TYPE>
pKd

>  <TEST RESULT>
5.00 to 6.00

$$$$
>  <MOLECULE>
CNS(=O)(=O)c1ccc(N2CCC(N3CCC(c4cc5ccccc5c(=O)[nH]4)C3)CC2)cc1 (single isomer, unassigned) [Compound 346a]

>  <OBSERVATION TYPE>
pKd

>  <TEST RESULT>
5.00 to 6.00

$$$$
